Values from patent US12655116B2

# Tested on: ALOMY
# assay-info: Pre-emergence herbicidal action against ALOMY
# Type: in vivo, Alopecurus myosuroides
# assay-context: 20 g/ha; scored visually after 3 weeks, 100% = plants have died, 0% = like control plants
assay-metric: Pre-emergence action against ALOMY (%)
Express it in %; write the number only.

Past entries and their recorded results:
• CCn1nnnc1NC(=O)c1ccc(C(F)(F)F)c(C(=O)NCCOC)c1C = 80
• Cn1nnnc1NC(=O)c1ccc(C(F)(F)F)c(C(=O)NCC2CC2)c1Cl = 80
• Cn1nnnc1NC(=O)c1ccc(C(F)(F)F)c(C(=O)NCC(F)F)c1Br = 100

Let us examine a further case.
Query string: Give a short answer stating reported Pre-emergence action against ALOMY for `CCn1nnnc1NC(=O)c1ccc(Br)c(C(=O)NCC2CC2)c1Cl` .
Result string: 80
